The values you see were collected from PubChem BioAssay (NCI).

# Tested on: EKVX NSCLC
# assay-info: NCI-60 one-dose screen, 48 h (100 = growth as untreated, 0 = no growth, -100 = all killed)
# condition-info: 10 µM unless noted
# Method: Growth inhibition of the EKVX human Non-Small Cell Lung tumor cell line is measured as a screen for anti-cancer activity. Cells are grown in 96 well plates and exposed to the test compound for 48 hours. Compounds are tested at a single concentration, which is 10^-5 M for most compounds. The reported endpoint is percent growth (GI% or GIPRCNT), where numbers from 0 - 100% represent growth inhibition, and numbers from -100% - 0 represent cell death. […]
This is part of a sample that, as a whole, favours compounds with a hit. Of some 83,000 tested, about 20% had one in any assay. Active and inactive are the calls of the source. How the source made its calls: active means growth percent below 10; inactive means the rest.
measured-property: growth

Guide cases for growth, answers given:
compound: CC1=C([Se]CC(OC(=O)[C@@H](CSSC(C)(C)C)NC(=O)C(C)(C)C)C(=O)NCCCCCC(=O)OCc2ccccc2)C(=O)c2ccccc2C1=O (stereo not given in full)
recorded-result: -24.2% (active)

compound: Nc1ccc2c(c1)Cc1cc(Cl)c(Cl)cc1-2
recorded-result: 48% (inactive)

compound: C[N+]1(C)C2CC[C@@H]1CC(OC(=O)C(O)c1ccccc1)C2 (stereo not given in full)
recorded-result: 99.4% (inactive)

compound: NS(=O)(=O)N(c1cc(C(F)(F)F)cc(C(F)(F)F)c1)C1CCN(Cc2ccc(C(F)(F)F)cc2)CC1
recorded-result: 16.2% (inactive)

compound: CC(=O)OCC(=O)[C@@]1(O)CC[C@H]2[C@@H]3CCC4=CC(=O)CC[C@]4(C)[C@@]3(F)[C@@H](O)C[C@@]21C
recorded-result: 88.8% (inactive)

compound: N/C(=N\c1nc2ccccc2s1)NC(=O)Nc1ccccc1Cl
recorded-result: 41.2% (inactive)

# lookup: growth of `COc1ccc(OC)c(CCn2cncc2-c2c[nH]c3cc(Br)ccc23)c1` 35.3% (inactive)

# lookup: growth of `O=c1c2ccccc2c2nccn2c2cc(Cl)ccc12` 83.2% (inactive)

# lookup: growth of `COc1ccc2c(c1)[n+](=O)c(/C=C/C(=O)c1cc(OC)c(OC)c(OC)c1)c(C)n2[O-]` 71.3% (inactive)
